Target: Glycogen synthase kinase-3 beta (Homo sapiens)
Sequence (P49841 whole entry): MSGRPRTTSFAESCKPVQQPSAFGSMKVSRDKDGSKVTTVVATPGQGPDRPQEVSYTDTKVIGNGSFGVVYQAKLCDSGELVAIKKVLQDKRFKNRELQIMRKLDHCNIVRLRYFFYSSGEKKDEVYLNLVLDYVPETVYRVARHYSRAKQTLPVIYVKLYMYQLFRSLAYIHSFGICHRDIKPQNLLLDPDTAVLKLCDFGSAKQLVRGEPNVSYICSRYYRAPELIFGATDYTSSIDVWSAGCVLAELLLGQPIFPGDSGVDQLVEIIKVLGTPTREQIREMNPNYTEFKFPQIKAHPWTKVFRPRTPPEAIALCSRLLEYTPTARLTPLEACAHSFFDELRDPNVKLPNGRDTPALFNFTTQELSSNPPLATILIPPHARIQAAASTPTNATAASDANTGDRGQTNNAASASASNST
Test: concentration-response blocking of human GSK3B – biochemical, luminescence, cell-free homogeneous, retest, dose response (AID 434954)
measuredEndpoint: EC50

Solved cases below.
{"columns": ["compound", "systemName", "EC50"],
 "data": [
  ["Cc1ccc(Nc2nc(-c3ccncc3)nc3ccccc23)cc1 [MLS000769531]", "Glycogen synthase kinase-3 beta (Homo sapiens)", "> 300 µM"],
  ["CCCn1c(SCC(=O)N2CCCCC2)nnc1-c1ccccn1", "Glycogen synthase kinase-3 beta (Homo sapiens)", "> 300 µM"],
  ["COCCNc1nc(SC)nc2sc3c(c12)CCN(C)C3", "Glycogen synthase kinase-3 beta (Homo sapiens)", "198 µM"]
]}

Give the measured EC50 of CCCc1cc(NCc2ccccn2)n2nc(C)c(-c3ccccc3)c2n1 [MLS000762884] .
> 300 µM

Request: CCSc1ccc2nnc(-c3ccc(F)cc3)n2n1 [SMR000028943]
2.82 µM

What about CN(C)c1ccc(C=NNC(=O)c2nnn(-c3nonc3N)c2CN2CCCCCC2)cc1 ?
> 300 µM

---

Target: Glycogen synthase kinase-3 beta (Homo sapiens)
Assay: concentration-response blocking of human GSK3B – biochemical, luminescence, cell-free homogeneous, retest, dose response (AID 434954)
measuredEndpoint: pEC50
Reminder that pEC50 is minus the log10 of a molar concentration.

{"columns": ["itemSmiles", "pEC50"],
 "data": [
  ["Cc1n[nH]c(O)c1N=Nc1ccc(S(N)(=O)=O)cc1", 4.44],
  ["Nc1nc(Nc2ccccc2)nc(NC2CCCCC2)c1[N+](=O)[O-]", 5.11]
]}

Item COc1ccc(-c2nn(-c3ccccc3)cc2CN=O)cc1 has what recorded pEC50?
6.36

---

Target: UniProt:P49841
Assay: concentration-response blocking of human GSK3B – biochemical, luminescence, cell-free homogeneous, retest, dose response (AID 434954)
measuredEndpoint: EC50 (µM)
Please state the figure in µM; there is no need to write the unit.

Completed entries (count: 2):
{"columns": ["compound", "obsValue"],
 "data": [
  ["C=CCNc1nc(N)c([N+](=O)[O-])c(NCCO)n1", 46.5],
  ["CCC(C)Nc1nc(N)c([N+](=O)[O-])c(NCCO)n1 (stereo unspecified)", 14.7]
]}

Now let's try a different one.
Any idea what EC50 was measured for CC(=NNC(=O)c1nnn(-c2nonc2N)c1CN1CCC(C)CC1)c1cccc(Br)c1 ?
25.4

---

// values below are reported EC50
Target: Glycogen synthase kinase-3 beta (Homo sapiens)
Assay: concentration-response blocking of human GSK3B – biochemical, luminescence, cell-free homogeneous, retest, dose response (AID 434954)

{"columns": ["compound", "EC50"],
 "data": [
  ["CN1CCN(/N=C/c2ccc(-c3ccc([N+](=O)[O-])cc3Cl)o2)CC1", "> 300 µM"],
  ["CCSc1nc(N)c2c3c(sc2n1)CN(C)CC3", "> 300 µM"],
  ["COc1ccc(C2CC(=O)C3C(=Nc4ncnn4C3c3ccccc3C)C2)cc1 (stereo not drawn)", "> 300 µM"]
]}

If you can, please state the reported EC50 value of O=C(Nc1ccccc1)Nc1cnccn1 .
> 300 µM

Input FC(F)(F)COc1ccc(-n2ccnc2)nn1
> 300 µM

Consider next the compound CCC(=O)n1nc(-c2ccc(OC)cc2)nc1N in the same way.
> 300 µM

Ok, now CC1CN(C(=O)CCc2cc(C(C)(C)C)c(O)c(C(C)(C)C)c2)CC(C)O1 (stereo not drawn)
> 300 µM

Where do these numbers come from? They come from BindingDB's records for doi:10.7270/Q2TX3CTT.
